Source listed as patent US20190040102A1.

target: somatostatin receptor type 2 (SSTR2) (UniProt P30874 1-369); experiment: cell-based or functional assay
Sequence (P30874 whole entry): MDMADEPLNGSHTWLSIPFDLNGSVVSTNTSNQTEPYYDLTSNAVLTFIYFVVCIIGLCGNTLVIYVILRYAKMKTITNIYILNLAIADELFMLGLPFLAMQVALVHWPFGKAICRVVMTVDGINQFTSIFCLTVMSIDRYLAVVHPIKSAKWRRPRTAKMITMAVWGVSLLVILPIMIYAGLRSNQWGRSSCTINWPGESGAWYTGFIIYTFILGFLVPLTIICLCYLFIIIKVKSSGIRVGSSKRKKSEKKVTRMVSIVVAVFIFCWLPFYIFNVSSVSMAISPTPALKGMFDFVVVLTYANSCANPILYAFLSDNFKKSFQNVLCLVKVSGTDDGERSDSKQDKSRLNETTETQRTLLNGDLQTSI
Positions of bridges follow the written chain, without caps; N, C: chain ends. Non-standard residues stand in square brackets, D forms with d. dPhe(4-CONH2) = NC(=O)c1ccc(C[C@@H](N)C(=O)O)cc1; Phe(4-Cl) = N[C@@H](Cc1ccc(Cl)cc1)C(=O)O; dPhe(4-Cl) = N[C@H](Cc1ccc(Cl)cc1)C(=O)O
recorded_endpoint: IC50 (PathHunter β-Arrestin, antagonist mode) (nM)
Field: numeric (nM). Do not append units.

binder	measure_unit	reported_result
H-[Phe(4-Cl)][dC]Y[dPhe(4-CONH2)]K(diMe)TC[dY]-NH2 (disulfide 2-7) [Compound 32: H-Cpa-cyclo[D-Cys-Tyr-D-Phe(4-carbamoyl)-Lys(N-diMe)-Thr-Cys]-D-Tyr-NH2]	nM	2.46

Enquiry: Fill in the blank: the reported IC50 (PathHunter β-Arrestin, antagonist mode) of H-[Phe(4-Cl)][dC]Y[dPhe(4-CONH2)]K(Me)TC[dPhe(4-Cl)]-NH2 (disulfide 2-7; SMILES CNCCCC[C@@H]1NC(=O)[C@@H](Cc2ccc(C(N)=O)cc2)NC(=O)[C@H](Cc2ccc(O)cc2)NC(=O)[C@H](NC(=O)[C@@H](N)Cc2ccc(Cl)cc2)CSSC[C@@H](C(=O)N[C@H](Cc2ccc(Cl)cc2)C(N)=O)NC(=O)[C@H]([C@@H](C)O)NC1=O) [Compound 46: H-Cpa-cyclo[D-Cys-Tyr-D-Phe(4-carbamoyl)-Lys(Nε-Me)-Thr-Cys]-D-Cpa-NH2] is ____.
Return: 0.398

Enquiry: And then XXYXKSCX (HELM PEPTIDE1{[N[C@@H](Cc1ccc(Cl)cc1)C(=O)[*:2]].[dC].Y.[NC(=O)c1ccc(C[C@@H](N[*:1])C(=O)[*:2])cc1].K.S.C.[dY].[am]}$PEPTIDE1,PEPTIDE1,2:R3-7:R3$$$V2.0; SMILES NCCCC[C@@H]1NC(=O)[C@@H](Cc2ccc(C(N)=O)cc2)NC(=O)[C@H](Cc2ccc(O)cc2)NC(=O)[C@H](NC(=O)[C@@H](N)Cc2ccc(Cl)cc2)CSSC[C@@H](C(=O)N[C@H](Cc2ccc(O)cc2)C(N)=O)NC(=O)[C@H](CO)NC1=O) [Compound 37: H-Cpa-cyclo[DCys-Tyr-D-(4-carbamoyl)Phe-Lys-Ser-Cys]-DTyr-NH2] , what is it?
Return: 10.6
